Below, each entry is listed alongside its reported Fraction of Input recovered at pH3.5.
- system_name: Human Neutrophil Elastase (human, UniProt P08246)
- measurement_description: pH elution of display phage from hNE beads, abbreviated protocol

Previously resolved entries follow.
> print(dat)
                                     binder                      value
1  AMINO2 display phage (designed binder) KPDSCQLGYSAGPCVAMFPRYFYNGTSMACETFQYGGCMGNGNNFVTEKDCLQTCRGA  0.00021 fraction of input
2  MUTP1 display phage (designed binder) RPDFCQLGYSAGPCIGMFSRYFYNGTSMACETFQYGGCMGNGNNFVTEKDCLQTCRGA  0.00092 fraction of input
3  MUTQE display phage (designed binder) RPDFCQLGYSAGPCVAMFPRYFYNGTSMACETFVYGGCMGNGNNFVTEKDCLQTCRGA   0.0016 fraction of input

Shift focus to the following entry.
Incoming: For the binder MA-BITI-E7-141 display phage (designed binder) RPDFCQLGYSAGPCVAMFPRYFYNGTSMACQTFVYGGCMGNGNNFVTEKDCLQTCRGA , give its reported Fraction of Input recovered at pH3.5.
Outgoing: 0.0018 fraction of input
